test system: peripheral blood lymphocytes collected from swine exposed to ASFV; type: cell-based
Metric: Number of Spots

# Substance, Result
data = [
    ("1514 (EAAELYFRL) [compound 1514]", 15),
    ("1571 (KTVQHIEQY) [compound 1571]", 14),
    ("756 (FTDNLCFMM) [compound 756]", 19),
    ("1296 (HGQLQTFPR) [compound 1296]", 16),
    ("1880 (FLNAYAHKL) [compound 1880]", 12),
    ("1736 (VTQRNQNYF) [compound 1736]", 13),
    ("85 (KSELSYWCTY) [compound 85]", 20),
    ("1139 (ALANTSANY) [compound 1139]", 12),
    ("2092 (KAKIAFPPEY) [compound 2092]", 17),
    ("625 (SVFMWICIY) [compound 625]", 15),
    ("2141 (RFFKKLLTHF) [compound 2141]", 12),
    ("641 (GRSLNMLSLI) [compound 641]", 16),
    ("1491 (MIADAINQEF) [compound 1491]", 13),
    ("1835 (KILGLLLAY) [compound 1835]", 21),
    ("2134 (KNYFRFFKK) [compound 2134]", 16),
    ("1828 (RSQTECGPY) [compound 1828]", 14),
    ("1287 (VHFNAHFKPY) [compound 1287]", 14),
    ("369 (KHTLQWLGLY) [compound 369]", 16),
    ("1658 (AFINSTDFLY) [compound 1658]", 12),
    ("2159 (RIHTRFGQYY) [compound 2159]", 15),
    ("1648 (RTLMDQPTY) [compound 1648]", 14),
    ("1840 (SLANHTVKYY) [compound 1840]", 14),
    ("2211 (ASFKEGLSL) [compound 2211]", 12),
    ("703 (STVITTAYNF) [compound 703]", 13),
    ("1531 (MVFNQLIASY) [compound 1531]", 12),
    ("653 (WAVFTGNMEL) [compound 653]", 16),
    ("1982 (NAFEWIHFV) [compound 1982]", 14),
]

---

test system: peripheral blood lymphocytes collected from swine exposed to ASFV; assay type: cell-based

# Substance, Number of Spots
measured = [
    ("2241 (YNLTEAIQYF) [compound 2241]", 14),
    ("647 (GADPTQKDY) [compound 647]", 14),
    ("1912 (KQFEMFNMVY) [compound 1912]", 12),
    ("447 (NIIHTIYQSY) [compound 447]", 331),
    ("1836 (GKTMPVEFYY) [compound 1836]", 17),
    ("2197 (KVRNKAIELY) [compound 2197]", 17),
    ("1573 (KVIRAHNFI) [compound 1573]", 12),
    ("725 (SDMYSVIFNI) [compound 725]", 15),
    ("931 (SIDYWVSFNK) [compound 931]", 12),
    ("56 (MRYTQIYKYPL) [compound 56]", 23),
    ("2265 (RYRHFKDWRLI) [compound 2265]", 13),
    ("1375 (RAREFYISW) [compound 1375]", 15),
    ("908 (VGYNNVCYY) [compound 908]", 16),
]

---

Known Number of Spots of a selection of substances
test system: peripheral blood lymphocytes collected from swine exposed to ASFV; format: cell-based
Metric: Number of Spots

# Substance, Measured target, Metric, Quantitative result
measured = [
    ("1499 (AVNLLRQTF) [compound 1499]", "peripheral blood lymphocytes collected from swine exposed to ASFV", "Number of Spots", 14),
    ("1627 (GTDLYQSAM) [compound 1627]", "peripheral blood lymphocytes collected from swine exposed to ASFV", "Number of Spots", 12),
    ("1509 (TLAQVFESF) [compound 1509]", "peripheral blood lymphocytes collected from swine exposed to ASFV", "Number of Spots", 17),
    ("1006 (KRKKHVEEI) [compound 1006]", "peripheral blood lymphocytes collected from swine exposed to ASFV", "Number of Spots", 13),
    ("2139 (NYFRFFKKLL) [compound 2139]", "peripheral blood lymphocytes collected from swine exposed to ASFV", "Number of Spots", 19),
    ("2251 (AIQYFYQRY) [compound 2251]", "peripheral blood lymphocytes collected from swine exposed to ASFV", "Number of Spots", 12),
    ("2181 (YPHIFYRPLY) [compound 2181]", "peripheral blood lymphocytes collected from swine exposed to ASFV", "Number of Spots", 12),
]

---

system: peripheral blood lymphocytes collected from swine exposed to ASFV; format: cell-based
Known Number of Spots of a selection of substances
Metric: Number of Spots

# Substance, Quantitative result
rows = [
    ("1783 (GMQDGIRWFY) [compound 1783]", 13),
    ("607 (NINCFNYCI) [compound 607]", 12),
    ("1759 (VQLANSSVYY) [compound 1759]", 15),
    ("1814 (YTIHYSMPY) [compound 1814]", 17),
    ("1753 (YFDTFANAM) [compound 1753]", 13),
    ("1196 (KEMQDYSLTF) [compound 1196]", 17),
    ("827 (NNVSYYWGL) [compound 827]", 13),
    ("557 (LIEFLTGFF) [compound 557]", 16),
    ("1841 (SMFKHFDNM) [compound 1841]", 17),
    ("1510 (FTDNAPAGHYY) [compound 1510]", 15),
    ("66 (CTYGEGNGHY) [compound 66]", 62),
    ("2118 (MMQTAIQKNYF) [compound 2118]", 13),
    ("1120 (SLPDVSTLPY) [compound 1120]", 13),
    ("839 (ASSSMHSGM) [compound 839]", 16),
    ("1372 (NVSRAREFY) [compound 1372]", 12),
    ("2223 (SFSEMLTRY) [compound 2223]", 12),
    ("724 (HSDMYSVIFNI) [compound 724]", 15),
    ("1503 (KTDPNFKNL) [compound 1503]", 13),
    ("1864 (SMPMSMIGPY) [compound 1864]", 13),
    ("2225 (SFSEMLTRYW) [compound 2225]", 12),
    ("954 (NNFTATCII) [compound 954]", 15),
    ("1873 (KLYTAALGVY) [compound 1873]", 12),
    ("1065 (KTRGTRLFF) [compound 1065]", 36),
    ("1370 (GAMMITFAL) [compound 1370]", 14),
    ("1991 (KQELSRLIY) [compound 1991]", 29),
    ("1875 (ISPRISYQF) [compound 1875]", 12),
    ("1488 (STQFMIQYF) [compound 1488]", 13),
]

---

tested on: peripheral blood lymphocytes collected from swine exposed to ASFV; format: cell-based
Metric: Number of Spots

# Substance, Result
data = [
    ("1348 (LMSALKWPIEY) [compound 1348]", 12),
    ("977 (LSSNYFYTF) [compound 977]", 18),
    ("283 (YTHLNTWRL) [compound 283]", 18),
    ("469 (HVVQRLGLY) [compound 469]", 14),
    ("1651 (RFSRPGNNY) [compound 1651]", 17),
    ("1923 (RISSELISY) [compound 1923]", 13),
    ("1517 (ATKKALIHF) [compound 1517]", 13),
]

---

Known Number of Spots of a selection of substances
tested on: peripheral blood lymphocytes collected from swine exposed to ASFV; format: cell-based
Metric: Number of Spots

# Substance, Quantitative result
measured = [
    ("523 (MGFSKPFMR) [compound 523]", 12),
    ("849 (FLKKNIYLY) [compound 849]", 13),
    ("1188 (VSNILHSVF) [compound 1188]", 13),
    ("335 (YLHETLFEL) [compound 335]", 12),
    ("1556 (QVVFHAGSLY) [compound 1556]", 13),
    ("70 (KSMPLIVENSY) [compound 70]", 35),
    ("84 (KVLGLLLGY) [compound 84]", 16),
    ("835 (AMFFTRSEW) [compound 835]", 26),
    ("1295 (SQMGAHGQL) [compound 1295]", 17),
    ("1484 (GTSYLRMAY) [compound 1484]", 14),
    ("1468 (ITYLNNMGY) [compound 1468]", 13),
    ("1390 (QQMLTRHIY) [compound 1390]", 12),
    ("1519 (FGMMNQTNY) [compound 1519]", 13),
    ("1172 (RCQHHAFSY) [compound 1172]", 12),
    ("1459 (KITSVTEFY) [compound 1459]", 19),
    ("1685 (NINRLMPYF) [compound 1685]", 12),
    ("847 (YINFRLKTFY) [compound 847]", 21),
    ("297 (LRHNFTKAIHY) [compound 297]", 16),
    ("2242 (YNLTEAIQY) [compound 2242]", 12),
    ("884 (ISAINHFNY) [compound 884]", 19),
    ("1278 (NYYPYYIY) [compound 1278]", 16),
    ("1033 (SVSPVFTSGY) [compound 1033]", 16),
    ("2037 (MCGKRNCPLY) [compound 2037]", 12),
    ("1436 (NKANKAFYI) [compound 1436]", 13),
    ("329 (ASLDYGMNL) [compound 329]", 12),
    ("1265 (INRNYYPYY) [compound 1265]", 12),
    ("309 (FTKAIHYFYKR) [compound 309]", 12),
    ("1823 (YTKFFNCPF) [compound 1823]", 25),
    ("1986 (KINQRSFSF) [compound 1986]", 13),
    ("1024 (SQKLVQLFY) [compound 1024]", 20),
    ("1159 (MAEIRFLSM) [compound 1159]", 12),
    ("1718 (SSELHFYVF) [compound 1718]", 15),
    ("1950 (ELVDHIFNY) [compound 1950]", 16),
    ("784 (KSKQASISSI) [compound 784]", 12),
    ("1472 (KVDLPYHLM) [compound 1472]", 16),
    ("1204 (MQDYSLTF) [compound 1204]", 17),
    ("2166 (KIDDFIRLY) [compound 2166]", 13),
    ("963 (TLINCTYLTL) [compound 963]", 19),
    ("1279 (YPYYIYKIF) [compound 1279]", 12),
    ("1952 (LSKNIAAEY) [compound 1952]", 17),
]

Source: patent US20220105170A1
